Please respond with reported viability, T/C for every item in the list.
# Test system: 186277-243-T-J2-PDC complex spheroid viability
# Method Summary: Anticancer human tumor 186277-243-T-J2-PDC patient-derived colon adenocarcinoma cell line growth inhibition [GQUAD]
# Run Conditions: second compound 3.16 µM; first compound 0.316 µM; active compounds read low
# From the text: DNA G-quadruplex Stabilizer Agents in Combinations in Complex Spheroids A high-throughput screen of multi-cell type tumor spheroids was designed to identify active combinations of DNA G-quadruplex stabilizer agents and targeted small molecules. […] Compounds. […] If the clinical Cmax for an agent had not been determined, the highest concentration tested was 10 microM. […]
Give bare numbers, in %.

Known results for molecules:
CCCS(=O)(=O)Nc1ccc(F)c(C(=O)c2c[nH]c3ncc(-c4ccc(Cl)cc4)cc23)c1F + Cc1cnc(CNC(=O)c2c(=O)c3ccc(N4CCCN(C)CC4)nc3n3c2sc2ccccc23)cn1 = 48.8
CC(=O)O[C@H]1C(=O)[C@@]2(C)[C@H]([C@H](OC(=O)c3ccccc3)[C@]3(O)C[C@H](OC(=O)[C@H](O)[C@@H](NC(=O)c4ccccc4)c4ccccc4)C(C)=C1C3(C)C)[C@]1(OC(C)=O)CO[C@@H]1C[C@@H]2O + CN(C)c1ccc(Nc2c3ccc(NC(=O)CCN4CCCC4)cc3nc3cc(NC(=O)CCN4CCCC4)ccc23)cc1 = 3.9
CC1COCCN1c1cc(C2(O)CC3CCC(C2)O3)c2cnn(-c3ccn[nH]3)c2n1 (stereo unspecified) + Cc1cnc(CNC(=O)c2c(=O)c3ccc(N4CCCN(C)CC4)nc3n3c2sc2ccccc23)cn1 = 19.5

Okay, here is my list. What is viability, T/C for each of these?
1. CC(C)n1c(=O)n(C)c2cnc3cc(F)c(-c4ccc(OCCCN5CCCCC5)nc4)cc3c21 + Cc1cnc(CNC(=O)c2c(=O)c3ccc(N4CCCN(C)CC4)nc3n3c2sc2ccccc23)cn1
2. CC(=O)O[C@H]1C(=O)[C@@]2(C)[C@H]([C@H](OC(=O)c3ccccc3)[C@]3(O)C[C@H](OC(=O)[C@H](O)[C@@H](NC(=O)c4ccccc4)c4ccccc4)C(C)=C1C3(C)C)[C@]1(OC(C)=O)CO[C@@H]1C[C@@H]2O + Cc1[nH]c2ccc(F)cc2c1-c1nc2c3cccnc3c3ncccc3c2[nH]1
3. COc1cccc2c1C(=O)c1c(O)c3c(c(O)c1C2=O)CC(O)(C(=O)CO)CC3OC1CC(N)C(O)C(C)O1 (stereo unspecified) + Cc1[nH]c2ccc(F)cc2c1-c1nc2c3cccnc3c3ncccc3c2[nH]1

1. 49.5
2. 4.81
3. 75

----------
# Test system: 186277-243-T-J2-PDC complex spheroid viability
# Method Summary: Anticancer human tumor 186277-243-T-J2-PDC cell line growth inhibition [GQUAD];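 further: spheroids exposed to drugs for 7 days; 100% = DMSO vehicle control viability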
# Run Conditions: second compound 0.316 µM; first compound 0.1 µM; active compounds read low
Please respond with reported viability, T/C for every item in the list.

Okay, here is my list. What is viability, T/C for each of these?
1. CC(C)n1c(=O)n(C)c2cnc3cc(F)c(-c4ccc(OCCCN5CCCCC5)nc4)cc3c21 + Cc1cnc(CNC(=O)c2c(=O)c3ccc(N4CCCN(C)CC4)nc3n3c2sc2ccccc23)cn1
2. CC1COCCN1c1cc(-c2ccnn2C)c2ccnc(-c3ccn[nH]3)c2n1 (configuration not stated) + Cc1[nH]c2ccc(F)cc2c1-c1nc2c3cccnc3c3ncccc3c2[nH]1
3. CC1COCCN1c1cc(C2(O)CC3CCC(C2)O3)c2cnn(-c3ccn[nH]3)c2n1 (configuration not stated) + Cc1cnc(CNC(=O)c2c(=O)c3ccc(N4CCCN(C)CC4)nc3n3c2sc2ccccc23)cn1
4. COc1ncnc(C2CC2)c1-c1ncc2cnn(Cc3ccc(-c4nc(C(F)(F)F)cn4C(C)C)cc3)c2n1 + Cc1cnc(CNC(=O)c2c(=O)c3ccc(N4CCCN(C)CC4)nc3n3c2sc2ccccc23)cn1
5. CCCS(=O)(=O)Nc1ccc(F)c(C(=O)c2c[nH]c3ncc(-c4ccc(Cl)cc4)cc23)c1F + Cc1[nH]c2ccc(F)cc2c1-c1nc2c3cccnc3c3ncccc3c2[nH]1

67.6%
17.8%
20.9%
57.2%
107%

Okay, here is my list. What is viability, T/C for each of these?
1. O=C(NO)c1cnc(N2CCN(S(=O)(=O)c3ccc4ccccc4c3)CC2)nc1 + Cc1cnc(CNC(=O)c2c(=O)c3ccc(N4CCCN(C)CC4)nc3n3c2sc2ccccc23)cn1
2. COc1ncnc(C2CC2)c1-c1ncc2cnn(Cc3ccc(-c4nc(C(F)(F)F)cn4C(C)C)cc3)c2n1 + Cc1[nH]c2ccc(F)cc2c1-c1nc2c3cccnc3c3ncccc3c2[nH]1
3. C#Cc1c(F)ccc2cc(O)cc(-c3ncc4c(N5CC6CCC(C5)N6)nc(OCC56CCCN5CC(F)C6)nc4c3F)c12 (configuration not stated) + CN(C)c1ccc(Nc2c3ccc(NC(=O)CCN4CCCC4)cc3nc3cc(NC(=O)CCN4CCCC4)ccc23)cc1
4. O=C(NO)c1cnc(N2CCN(S(=O)(=O)c3ccc4ccccc4c3)CC2)nc1 + CN(C)c1ccc(Nc2c3ccc(NC(=O)CCN4CCCC4)cc3nc3cc(NC(=O)CCN4CCCC4)ccc23)cc1
5. CCCS(=O)(=O)Nc1ccc(F)c(C(=O)c2c[nH]c3ncc(-c4ccc(Cl)cc4)cc23)c1F + CN(C)c1ccc(Nc2c3ccc(NC(=O)CCN4CCCC4)cc3nc3cc(NC(=O)CCN4CCCC4)ccc23)cc1
6. COc1cccc2c1C(=O)c1c(O)c3c(c(O)c1C2=O)CC(O)(C(=O)CO)CC3OC1CC(N)C(O)C(C)O1 (configuration not stated) + CN(C)c1ccc(Nc2c3ccc(NC(=O)CCN4CCCC4)cc3nc3cc(NC(=O)CCN4CCCC4)ccc23)cc1

["39.7%", "95.7%", "50.4%", "94.8%", "102%", "78.9%"]

Okay, here is my list. What is viability, T/C for each of these?
1. CC1COCCN1c1cc(C2(S(C)(=N)=O)CC2)nc(-c2ccnc3[nH]ccc23)n1 (configuration not stated) + Cc1cnc(CNC(=O)c2c(=O)c3ccc(N4CCCN(C)CC4)nc3n3c2sc2ccccc23)cn1
2. COc1cc(C2c3cc4c(cc3C(OC3OC5COC(C)OC5C(O)C3O)C3COC(=O)C23)OCO4)cc(OC)c1O (configuration not stated) + CN(C)c1ccc(Nc2c3ccc(NC(=O)CCN4CCCC4)cc3nc3cc(NC(=O)CCN4CCCC4)ccc23)cc1
3. CC(C)n1c(=O)n(C)c2cnc3cc(F)c(-c4ccc(OCCCN5CCCCC5)nc4)cc3c21 + Cc1[nH]c2ccc(F)cc2c1-c1nc2c3cccnc3c3ncccc3c2[nH]1
4. COc1ccc([C@@H](O)c2cc(-c3ncnc4cc(N5CCOCC5)ccc34)c(F)cc2Cl)nn1 + CN(C)c1ccc(Nc2c3ccc(NC(=O)CCN4CCCC4)cc3nc3cc(NC(=O)CCN4CCCC4)ccc23)cc1
5. COc1ncnc(C2CC2)c1-c1ncc2cnn(Cc3ccc(-c4nc(C(F)(F)F)cn4C(C)C)cc3)c2n1 + CN(C)c1ccc(Nc2c3ccc(NC(=O)CCN4CCCC4)cc3nc3cc(NC(=O)CCN4CCCC4)ccc23)cc1

1: 83.1%; 2: 96.7%; 3: 105%; 4: 92.7%; 5: 110%

What viability, T/C value was documented for this molecule, C=CCn1c(=O)c2cnc(Nc3ccc(N4CCN(C)CC4)cc3)nc2n1-c1cccc(C(C)(C)O)n1 + CN(C)c1ccc(Nc2c3ccc(NC(=O)CCN4CCCC4)cc3nc3cc(NC(=O)CCN4CCCC4)ccc23)cc1 ? 94.4%
